Taken from patent US20180099967A1.

Field: IC50. Provide a value for each of the compounds that follow.
- Test system: HIV-1
- Test method notes: microbe, parasite or virus in culture
- Format: cell-based, HIV-1 (H9IIIB or NL4-3 virus)
- Run conditions: read-out: WILD TYPE CELL ASSAY Viking IP (0% NHS)
Give your result in nM as a bare value.

Give IC50 for the following compound: CCN1C[C@@H]2CC(N3CCCC3)c3c(C(=O)NCc4ccc(F)cc4F)c(=O)c(O)c(n32)C1=O (single isomer, unassigned) [Compound 33] 9

Give IC50 for the following compound: CCCN1CC2CC(NS(C)(=O)=O)c3c(C(=O)NCc4ccc(F)cc4F)c(=O)c(O)c(n32)C1=O (single isomer, unassigned) [Compound 68] 3

Give IC50 for the following compound: CCN1C[C@H]2C[C@@H](NS(C)(=O)=O)c3c(C(=O)NCc4ccc(F)cc4F)c(=O)c(O)c(n32)C1=O 2
